- System: MDA-MB-435
- TEST: NCI tumour cell line growth inhibition, 48 h
REPORTED_PROPERTY: TGI

| MOLECULE | REPORTED_PROPERTY | VALUE_OBSERVED |
| --- | --- | --- |
| COC(=O)c1cc2c(cc1CC(Cc1ccc3c(c1)CCC3)C(=O)OC)CCC2 (configuration not stated) | TGI | > 100 µM |
| Cc1cc2c(nn1)-c1ccccc1C2=O | TGI | > 10 µM |
| Cc1cc2nc(-c3cc(C(C)(C)C)c(O)c(C(C)(C)C)c3)[nH]c2cc1C | TGI | > 100 µM |

// input: 4 molecules below; output: TGI for each
1. COc1cc(C=C2C(=O)NC(=S)NC2=O)cc(OC)c1OC
2. O=C(O)CSC(NC(=O)C(C(F)(F)F)C(F)(F)F)(C(F)(F)F)C(F)(F)F
3. COC(=O)C1=C(O)C(C(=O)OC)[C@@]2(O)[C@@H](C(=O)OC)[C@H](C)[C@@H](C)[C@@H]1[C@@H]2C(=O)OC (some centres not stated)
4. C=C1CC[C@@H](C(C)C)C[C@@H]2[C@H]([C@H](O)C[C@]2(C)O)[C@@]2(C)CC[C@@H]1O2

1: > 100 µM; 2: > 100 µM; 3: 39.2 µM; 4: 32.1 µM

###

- Test system: DMS 114 small cell lung
- TEST: NCI tumour cell line growth inhibition, 48 h
I'd appreciate it if you could supply TGI values for the items below.

| COMPOUND | TGI |
| --- | --- |
| OCC(O)CNc1ccnc2cc(Cl)ccc12 (stereo not drawn) | > 100 µM |
| CCOC(=O)/C(=C/c1cccc(C#N)c1)N(CC)CC | > 100 µM |

Summary for this compound, COc1cc(C(=O)N2CCc3c([nH]c4c([N+](=O)[O-])c(OC)ccc34)C2C)cc(OC)c1OC (stereo not drawn) : TGI is > 100 µM

###

- Test system: SN12C renal
- TEST: NCI tumour cell line growth inhibition, 48 h
I'd appreciate it if you could supply TGI values for the items below.

Known TGI results, listed for orientation:
| COMPOUND | VALUE_OBSERVED |
| --- | --- |
| Cc1nn(C(=O)c2ccc(Cl)cc2)c2c1C(c1ccc(O)cc1)SC(N)=N2 (configuration not stated) | > 10 µM |
| COC(=O)C1(Cc2ccc3c(c2)CCC3)Cc2cc3c(cc2C1)CCC3 | > 100 µM |
| Cc1cc2c(nn1)-c1ccccc1C2=O | > 10 µM |
| CC1=C(C(=O)NNS(=O)(=O)c2ccc(C)cc2)CC(C(=O)NNS(=O)(=O)c2ccc(C)cc2)=C(C)N1 | > 100 µM |

// input: 3 compounds below; output: TGI for each
1. COC(=O)CCC1=C(CC(=O)OC)C(C)=N/C1=C\c1[nH]c(-c2ccc[nH]2)cc1OC
2. CCCCc1c2c(nc3c1CCC/C3=C\c1ccccc1)/C(=C/c1ccccc1)CCC2
3. C=C1C(=O)OC2/C=C(/C)C3(O)OC(C)(CC(OC(=O)C(C)C)C12)CC3OC(C)=O (configuration not stated)

["24.9 µM", "> 100 µM", "17.5 µM"]

###

- Tested on: TK-10 renal
- TEST: NCI tumour cell line growth inhibition, 48 h; in the data active = GI50 below about 0.43 µM; inactive = the rest
Answer with one of the outcomes y = active, n = inactive

Answered examples (3):
| COMPOUND | CLASS |
| --- | --- |
| Nc1nc(N)c2cc(CNc3ccc(C(=O)NC(CC(=O)O)C(=O)O)c(Cl)c3)ccc2n1 (stereo unspecified) | n |
| COc1ccc2c3c(Nc4ccc(/C(C)=N/O)cc4)[nH]c4ccccc4c-3c(N=O)c2c1 | n |
| O=C(N/N=C/c1c(Cl)cccc1Cl)c1ccc(C(F)(F)F)nc1Nc1cccc(C(F)(F)F)c1 | n |

Status in this test for Clc1ccc(N=CNc2ccc(-c3nc4ccccc4o3)cc2)cc1 ? n

Status in this test for O=C(NCc1ccc(S(=O)(=O)c2cc(F)cc(F)c2)cc1)c1ccc2nccn2c1 ? n

###

- Tested on: OVCAR-5 ovarian
- TEST: NCI tumour cell line growth inhibition, 48 h
REPORTED_PROPERTY: TGI

Known TGI results, listed for orientation:
| MOLECULE | REPORTED_PROPERTY | VALUE_OBSERVED |
| --- | --- | --- |
| O=C(Nc1ccc(-n2cc(-c3ccncc3)c(-c3ccc(O)c(Cl)c3)n2)cc1)Nc1cccc(Cl)c1Cl | TGI | > 32.5 µM |
| CCCCCc1ccc(S(=O)(=O)Nc2cc(-c3csc(NC(C)=O)n3)ccc2N2CCN(C)CC2)cc1 | TGI | 9.55 µM |
| Cc1cc2c(nn1)-c1ccccc1C2=O | TGI | > 10 µM |

API: the following record is the query input.
Summary for this compound, c1ccc(CSc2nc3ccccc3nc2-c2cccs2)cc1 : TGI is > 100 µM

###

I'd appreciate it if you could supply TGI values for the items below.
- System: SW-620 colon
- TEST: NCI tumour cell line growth inhibition, 48 h

Known TGI results, listed for orientation:
| COMPOUND | TGI |
| --- | --- |
| O=C(NCc1ccc(S(=O)(=O)c2cc(F)cc(F)c2)cc1)c1ccc2nccn2c1 | > 100 µM |
| O=C(O)CC(NC(=O)/C(=C/c1ccccc1O)NC(=O)c1ccccc1)C(=O)O (stereo unspecified) | > 100 µM |
| CCCCCc1ccc(S(=O)(=O)Nc2cc(-c3csc(NC(C)=O)n3)ccc2N2CCN(C)CC2)cc1 | 4.72 µM |
| C/C(=N\NC(=S)N1CC2CCC(CC2)C1)c1ccccn1 | 1.57 µM |
| O=[N+]([O-])c1ccc(C2=Nc3ccccc3SC(c3ccccc3)C2)cc1 (stereo unspecified) | 27.8 µM |
| O=C(N/N=C/c1c(Cl)cccc1Cl)c1ccc(C(F)(F)F)nc1Nc1cccc(C(F)(F)F)c1 | > 51.1 µM |

// input: 7 compounds below; output: TGI for each
1. N#Cc1c(C#N)c(-c2ccccc2)n(-c2ccccc2)c1N
2. CCN(CC)CCNC(=O)c1ccc(C)c(OCc2ccccc2)c1[N+](=O)[O-]
3. O=[N+]([O-])c1ccc(CSCc2ccc(Cl)cc2)cc1
4. COc1cc([C@@H]2c3cc4c(cc3[C@@H](c3c(O)cc(O)c5c3O[C@H](c3ccc(O)c(O)c3)[C@@H](O)C5)[C@H]3COC(=O)[C@H]23)OCO4)cc(OC)c1O
5. Nc1nc(N)nc(CCCc2nc(N)nc(N)n2)n1
6. CCC(=O)Nc1ccc(N=NN(C)C)cc1
7. Cn1c(=O)c2c(ncn2CC(=O)Nc2ccc(-c3ccccc3)nn2)n(C)c1=O

1. > 100 µM
2. 44 µM
3. > 100 µM
4. > 100 µM
5. > 100 µM
6. > 100 µM
7. > 100 µM

###

- Test system: OVCAR-3 ovarian
- TEST: NCI tumour cell line growth inhibition, 48 h
I'd appreciate it if you could supply TGI values for the items below.

| COMPOUND | VALUE_OBSERVED |
| --- | --- |
| CC12CC1C(c1cccc([N+](=O)[O-])c1)(c1cccc([N+](=O)[O-])c1)N=N2 (stereo not drawn) | > 100 µM |
| N#CCCN(CCC#N)c1ccc(/C=C2\SC(=S)NC2=O)cc1Br | > 100 µM |

API: the following record is the query input.
The compound CC1C(c2ccc3c(c2)OCO3)c2cc3c(cc2OC1N1CCOCC1)OCO3 (stereo not drawn) on OVCAR-3 ovarian: TGI was > 93.8 µM

###

- Test system: HCT-15 colon
- TEST: NCI tumour cell line growth inhibition, 48 h
REPORTED_PROPERTY: TGI

Known TGI results, listed for orientation:
| COMPOUND | TGI |
| --- | --- |
| Clc1ccc(N=CNc2ccc(-c3nc4ccccc4o3)cc2)cc1 | > 100 µM |
| O=C(CCc1cccc(O)c1)NCCCNC(=O)CCc1cccc(O)c1 | > 100 µM |
| O=c1oc2ccc(Br)cc2c(=O)n1-c1ccc(F)cc1F | 12.8 µM |
| O=[N+]([O-])c1ccc(CSCc2ccc(Cl)cc2)cc1 | > 100 µM |
| Nc1ccc2nc3n(c2c1)C(=O)c1ccccc1-3 | > 100 µM |

// input: 5 compounds below; output: TGI for each
1. CN(C)P(=O)(Oc1occc1C(O)Cc1ccccc1)N(C)C (stereo unspecified)
2. O=C(c1ccco1)C1CC(c2c(O)ccc3ccccc23)=NN1 (stereo unspecified)
3. Cn1ccnc1Sc1ccc(C=Nc2ccc3nc(SCC(=O)NC4CCCCC4)sc3c2)cc1[N+](=O)[O-]
4. O=C1CS(=O)C23c4cc5ccccc5n4CCC2CCCN13 (stereo unspecified)
5. CCCCCCCCCCCCOC1C(C(CC(=O)NCCN2CCCC2)NS(=O)(=O)c2cc(Cl)cc(Cl)c2)OC2OC(C)(C)OC21 (stereo unspecified)

1: > 100 µM; 2: > 100 µM; 3: > 100 µM; 4: > 100 µM; 5: 3.18 µM

Summary for this compound, Nc1nc(N)nc(CCCc2nc(N)nc(N)n2)n1 : TGI is > 100 µM
